Values from the supplement of paper PMC10567573

Property: protein stability index; scope: individual variants
B1: ZER1 (parent)
chain: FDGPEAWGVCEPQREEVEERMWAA

# Variants of: B1
# Protocol Details: protein stability index of a GFP-peptide fusion (GPS, HEK-293T) (PSI 1-6); higher = more stable;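 also: lentivirally expressed fusions sorted by FACS into six bins by GFP to DsRed ratio, PSI derived from sequencing read proportions per bin multiplied by bin number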
# Measurement Context: c terminus: a fixed tail appended
# output: bare number, no unit

Look over these answered cases.
A6S 3.53
W22P 3.57

Consider the record given below.
Ask: Param item = R14T ; retrieve measured protein stability index.
Reply: 2.54
